Assay: Toxicity liver stage against HepG2, at 10uM
Type: cell-based
Design: test concentration 10 uM, cell line HepG2-A16-CD81EGFP
Settings: human, HepG2-A16-CD81EGFP cells; read-out: INHIBITION
PROPERTY: cytotoxicity at 10 µM (%)
Lab book: enter the figure in %, no units written.

Request: Query (molecule): "c1coc(CN2CCc3onc(Cn4cccc4)c3C2)c1" ; field requested: cytotoxicity at 10 µM
Result: 8.43

Request: So what's the measured cytotoxicity at 10 µM for this one? O=C(NCC1(O)CCSC1)c1ccn(-c2ccccc2F)n1 (stereo unspecified)
Result: 2.88

Request: Would you mind telling me what cytotoxicity at 10 µM value was observed for O=C1CCC(C(=O)Nc2ccc(=O)n(Cc3ccccc3Cl)c2)N1 (stereo unspecified) ?
Result: -1.36

Request: Return reported cytotoxicity at 10 µM; argument: "COCC(=O)N1CCC(c2cncc(-c3cccc(F)c3)n2)CC1"
Result: -11.3

Request: Which cytotoxicity at 10 µM value belongs to Cc1cnc(C(=O)N2CCCC(Cn3cc(CC(C)C)nn3)C2)cn1 (stereo unspecified) ?
Result: 1.33

Request: Which measured cytotoxicity at 10 µM value corresponds to "O=C(O)c1cc(S(=O)(=O)Nc2ccccc2)cc2c1OCCO2" ?
Result: -9.26

Request: Fill blank: measured cytotoxicity at 10 µM of the molecule c1ccc(Oc2ccc(OC34CCCN(CC3)C4)cc2)cc1 (stereo unspecified) is ____.
Result: 0.741

Request: Reported cytotoxicity at 10 µM, molecule CCc1cc(C(=O)N2CCC(C3CCN(c4ncccn4)CC3)C2)on1 (stereo unspecified) : ____
Result: 2.25

Request: Record request: cytotoxicity at 10 µM value, item CC(C)(C(=O)N1CCC(C(N)=O)C1)c1ccccc1F (stereo unspecified)
Result: 4.68

Request: Which cytotoxicity at 10 µM value belongs to CCc1cnc(C)nc1NC1CC(=O)N(CC2CCCCC2)C1 (stereo unspecified) ?
Result: -6.38

Request: What does the record list as cytotoxicity at 10 µM for "N#Cc1c[nH]c(C(=O)N(Cc2ccc(O)cc2)CC2CC2)c1" ?
Result: 11.5

----------
Experiment: Toxicity liver stage against HepG2, at 10uM
Type: cell-based
Parameters: test concentration 10 uM, cell line HepG2-A16-CD81EGFP
Settings: human, HepG2-A16-CD81EGFP cells; read-out: INHIBITION
What cytotoxicity at 10 µM was measured for each of the following?
Quick reminder: number only, in %, skip the unit.

Request: Suppose we examine the compound "COc1ncc(NCc2csc(-c3ccco3)n2)cc1C(N)=O" ; what cytotoxicity at 10 µM value has been reported?
Result: -17.9

Request: Using the record for COc1ccccc1C1CCCN1CC(=O)N1CCC(C(N)=O)CC1 (configuration not stated) , report its cytotoxicity at 10 µM.
Result: -24.8

Request: I would be grateful if you could share the reported cytotoxicity at 10 µM for Cc1cc(C)cc(CN2CCC3(CC2)CC(Nc2ncccn2)CO3)c1 (configuration not stated) .
Result: 5.39

Request: If you can, please state the reported cytotoxicity at 10 µM value of Cc1csc(C(C#N)C(=O)Nc2ccccc2)n1 (configuration not stated) .
Result: 12.6

Request: Returns the measured cytotoxicity at 10 µM for the input compound. Input: O=C(Nc1cccc(C2SCCS2)c1)C1CCCN1c1nccs1 (configuration not stated)
Result: -10.1

Request: Which cytotoxicity at 10 µM reading was recorded for the compound CCS(=O)(=O)NCCN1CCN(C(C#N)c2ccccc2)CC1 (configuration not stated) ?
Result: -4.04

Request: Sample Cc1ccc(-c2nnc(C(C)N3CCn4c(C)nnc4C3)o2)cc1 (configuration not stated) — what was its cytotoxicity at 10 µM?
Result: -7.33

Request: Any idea what its cytotoxicity at 10 µM is? The compound is "Cc1cn2nc(Sc3nnnn3C)sc2n1"
Result: 17.3

Request: Dear colleague, I am looking for the recorded cytotoxicity at 10 µM of the following compound: "Cc1csc(CN2CCC[C@]3(C[C@H](OCC4CC4)CO3)C2)n1"
Result: -141

Request: Consider the compound shown here: "O=S(=O)(C1CC1)N1CCC2(CCCN(Cc3ccccn3)C2)CC1" What is its recorded cytotoxicity at 10 µM?
Result: 5.97

Request: Entry CC(C)C(NC(=O)Nc1cnn(CC(N)=O)c1)c1ccc(Cl)cc1 (configuration not stated) : reported cytotoxicity at 10 µM = ?
Result: 7.51

Request: Name the reported cytotoxicity at 10 µM value associated with the compound COc1ccc(NC(=O)CCC2CCCN(Cc3ncon3)C2)c(C)c1 (configuration not stated)
Result: 0.523

----------
Assay: Toxicity liver stage against HepG2, at 10uM
Type: cell-based
Design: test concentration 10 uM, cell line HepG2-A16-CD81EGFP
Details: human, HepG2-A16-CD81EGFP cells; read-out: INHIBITION
PROPERTY: cytotoxicity at 10 µM

Request: What cytotoxicity at 10 µM value was documented for this compound, "CC(C)NC(=O)N1CCC[C@H]1C(=O)NCCCc1cccc(F)c1" ?
Result: 4.27%

Request: If you can, please state the reported cytotoxicity at 10 µM value of "O=C(c1ccsc1)N1C[C@H]2CN(Cc3cccc(F)c3)C(=O)[C@H]2C1" .
Result: 0.98%

Request: Can you look up the measured cytotoxicity at 10 µM of CC1CCCN(Cc2c(C3CC3)n(CC(=O)N(C)C)c3ncccc23)C1 (stereo not given) for me?
Result: 4.04%

Request: Given COc1cccc(N2CCN(CC(O)c3ccc(C)cc3)CC2)c1 (stereo not given) , state its recorded cytotoxicity at 10 µM.
Result: -11.6%

Request: What cytotoxicity at 10 µM value was documented for this compound, O=C1CN(C(=O)CNC(CC(F)(F)F)c2ccc(F)cc2)CCN1 (stereo not given) ?
Result: 10.4%

----------
Assay: Toxicity liver stage against HepG2, at 10uM
Type: cell-based
Parameters: test concentration 10 uM, cell line HepG2-A16-CD81EGFP
Details: human, HepG2-A16-CD81EGFP cells; read-out: INHIBITION
What cytotoxicity at 10 µM was measured for each of the following?
Write the number in % without appending the unit.

Request: Param item = "CCN1C(=O)C2(CCOCC2)c2cc(NC(=O)c3ccco3)ccc21" ; retrieve measured cytotoxicity at 10 µM.
Result: -10.3

Request: Looking for the measured cytotoxicity at 10 µM of CCNC(=O)N1CCC(OC)c2ccccc2N(CC(=O)NC)C(=O)C1 (stereo unspecified) , can you help?
Result: 5.5

Request: # get_value(readout='cytotoxicity at 10 µM', item= "CC(C)(C)n1cc(C(=O)NCCN2CCOCC2)c2cccnc21" )
Result: 2.14

Request: I am curious: what cytotoxicity at 10 µM value has been reported for "Cc1cc(NC(=O)CN2CCc3nn(C)c(=O)cc3C2)on1" ?
Result: -1.45

Request: I would be grateful if you could share the reported cytotoxicity at 10 µM for "Cn1ccc(CNC(=O)Nc2ccc(S(=O)(=O)C(F)F)cc2)c1" .
Result: 5.93

Request: Requested field: cytotoxicity at 10 µM. Item: "O=C(CCNC(=O)C1CCCC1)NCc1ccccc1Cn1ccnc1"
Result: -2.74

Request: Requested read-out: cytotoxicity at 10 µM. Entry: "COC(=O)[C@H](C)NC(=O)COc1nn(C)c2nc(C)cc(C)c12"
Result: -2.53

Request: What value of cytotoxicity at 10 µM has been recorded for this entry: COc1ccc(CC(=O)N2CCCC(c3cc(C)[nH]n3)C2)cc1 (stereo unspecified)
Result: -7.69

Request: Reported cytotoxicity at 10 µM for NCC(CO)Cc1cccc(OC(F)(F)F)c1 (stereo unspecified) : what is it?
Result: 3.2

Request: What measured cytotoxicity at 10 µM goes with "Cc1cnc2n1CCN(C)C21CCN(CC2CC2)CC1" ?
Result: 7.34

Request: What does the record list as cytotoxicity at 10 µM for c1cnnc(N2CCCC2CNCc2nc(-c3cccs3)no2)c1 (stereo unspecified) ?
Result: -7.69
